Target: HCV NS3h (Hepatitis C virus genotype 1b)
Sequence (Q9WMX2 1190-1657 limits assumed): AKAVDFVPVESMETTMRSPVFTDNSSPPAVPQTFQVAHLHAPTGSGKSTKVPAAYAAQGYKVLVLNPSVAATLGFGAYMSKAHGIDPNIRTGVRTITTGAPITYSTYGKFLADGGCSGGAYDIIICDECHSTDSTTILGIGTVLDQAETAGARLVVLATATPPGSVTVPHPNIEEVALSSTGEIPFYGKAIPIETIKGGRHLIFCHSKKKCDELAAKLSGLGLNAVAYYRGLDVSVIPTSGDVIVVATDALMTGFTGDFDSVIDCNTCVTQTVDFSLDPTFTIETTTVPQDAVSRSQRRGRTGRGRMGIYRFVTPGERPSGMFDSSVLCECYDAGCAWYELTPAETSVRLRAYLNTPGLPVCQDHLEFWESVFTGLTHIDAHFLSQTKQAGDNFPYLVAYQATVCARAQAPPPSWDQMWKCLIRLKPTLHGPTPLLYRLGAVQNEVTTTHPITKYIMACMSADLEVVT
Assay: FP-based binding assay, NS3h displacement from Cy5-rU15 RNA
Parameters: species or system hepatitis C virus genotype 1b (con1)
Details: IC50 RNA (Cy5-rU15–NS3h complex, RNA:NS3h binding), Figures 1C and 7B titration
MEASURED PARAMETER: IC50

Note IC50 for the compound shown: O=c1c2ccccc2[se]n1-c1ccccc1
~1000 nM
